- experiment: probe aWnt5a binding to arrayed compounds – biochemical, biotinylated probe, 635/667 nm fluorescence, primary screen (AID 1113);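 note: score merges 667 nm fluorescence intensity with signal-to-noise per printed feature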
- study.conditions: higher = more signal; small-molecule microarray, probe aWnt5a, fluorescence unless noted
measured.parameter: composite z-score
Reply with just the number.

| compound | composite z-score |
| --- | --- |
| COC(=O)[C@H]1[C@@H](O)[C@@]2(O)c3c(OC)cc(OC)cc3O[C@@]2(c2ccc(OC)cc2)[C@@H]1c1ccccc1 | -0.0606 |
| OCc1ccc(C2=CC(C3CC3)N(Cc3sc4ccccc4c3Cl)CC2)cc1 (stereo not drawn) | -0.103 |
| COC(=O)NCC=Cc1nc(CCC=CC(=O)O[C@H]2CC3CC(=O)O[C@@H](C=CCC(C)C)C[C@@H]4CC[C@H](C)[C@@H](C[C@@H](OC)C[C@H](C2)O3)O4)co1 | -0.179 |
| COC(=O)C1(C)C=C2C(=C(C)C(=O)C2C)CN1 (stereo not drawn) | -0.113 |

Task: Field request: composite z-score | item: COC(=O)[C@@]1(Cc2ccccc2)[C@H]2c3cc(C(=O)N(C)C)[nH]c3C[C@H]2CN1C(=O)c1ccccc1
Result: 0.0037

Task: Field request: composite z-score | item: O=P(c1ccccc1)(c1ccccc1)N1CC2(CC2)CC(O)(c2ccccc2)C1 (stereo not drawn)
Result: 0.435

Task: Field request: composite z-score | item: C[C@@H]1OC=C2[C@@H](O)[C@H]3O[C@H]3C(=O)[C@]23[C@H]1[C@H]1C2=C([C@@H](O)[C@H]4O[C@H]4C2=O)[C@@H]3O[C@@H]1C
Result: -0.224

Task: Field request: composite z-score | item: CCCc1cc2c(n1Cc1ccco1)C(C)C1CN(C(=O)c3ccccc3)C(C)(C(=O)OC)C21 (stereo not drawn)
Result: 0.117

* * *

The reader will find reported composite z-score values listed item by item below.
- assay.target: Neurogenic locus notch homolog protein 3 (Homo sapiens) (UniProt Q9UM47)
- Sequence (Q9UM47 whole entry, looked up): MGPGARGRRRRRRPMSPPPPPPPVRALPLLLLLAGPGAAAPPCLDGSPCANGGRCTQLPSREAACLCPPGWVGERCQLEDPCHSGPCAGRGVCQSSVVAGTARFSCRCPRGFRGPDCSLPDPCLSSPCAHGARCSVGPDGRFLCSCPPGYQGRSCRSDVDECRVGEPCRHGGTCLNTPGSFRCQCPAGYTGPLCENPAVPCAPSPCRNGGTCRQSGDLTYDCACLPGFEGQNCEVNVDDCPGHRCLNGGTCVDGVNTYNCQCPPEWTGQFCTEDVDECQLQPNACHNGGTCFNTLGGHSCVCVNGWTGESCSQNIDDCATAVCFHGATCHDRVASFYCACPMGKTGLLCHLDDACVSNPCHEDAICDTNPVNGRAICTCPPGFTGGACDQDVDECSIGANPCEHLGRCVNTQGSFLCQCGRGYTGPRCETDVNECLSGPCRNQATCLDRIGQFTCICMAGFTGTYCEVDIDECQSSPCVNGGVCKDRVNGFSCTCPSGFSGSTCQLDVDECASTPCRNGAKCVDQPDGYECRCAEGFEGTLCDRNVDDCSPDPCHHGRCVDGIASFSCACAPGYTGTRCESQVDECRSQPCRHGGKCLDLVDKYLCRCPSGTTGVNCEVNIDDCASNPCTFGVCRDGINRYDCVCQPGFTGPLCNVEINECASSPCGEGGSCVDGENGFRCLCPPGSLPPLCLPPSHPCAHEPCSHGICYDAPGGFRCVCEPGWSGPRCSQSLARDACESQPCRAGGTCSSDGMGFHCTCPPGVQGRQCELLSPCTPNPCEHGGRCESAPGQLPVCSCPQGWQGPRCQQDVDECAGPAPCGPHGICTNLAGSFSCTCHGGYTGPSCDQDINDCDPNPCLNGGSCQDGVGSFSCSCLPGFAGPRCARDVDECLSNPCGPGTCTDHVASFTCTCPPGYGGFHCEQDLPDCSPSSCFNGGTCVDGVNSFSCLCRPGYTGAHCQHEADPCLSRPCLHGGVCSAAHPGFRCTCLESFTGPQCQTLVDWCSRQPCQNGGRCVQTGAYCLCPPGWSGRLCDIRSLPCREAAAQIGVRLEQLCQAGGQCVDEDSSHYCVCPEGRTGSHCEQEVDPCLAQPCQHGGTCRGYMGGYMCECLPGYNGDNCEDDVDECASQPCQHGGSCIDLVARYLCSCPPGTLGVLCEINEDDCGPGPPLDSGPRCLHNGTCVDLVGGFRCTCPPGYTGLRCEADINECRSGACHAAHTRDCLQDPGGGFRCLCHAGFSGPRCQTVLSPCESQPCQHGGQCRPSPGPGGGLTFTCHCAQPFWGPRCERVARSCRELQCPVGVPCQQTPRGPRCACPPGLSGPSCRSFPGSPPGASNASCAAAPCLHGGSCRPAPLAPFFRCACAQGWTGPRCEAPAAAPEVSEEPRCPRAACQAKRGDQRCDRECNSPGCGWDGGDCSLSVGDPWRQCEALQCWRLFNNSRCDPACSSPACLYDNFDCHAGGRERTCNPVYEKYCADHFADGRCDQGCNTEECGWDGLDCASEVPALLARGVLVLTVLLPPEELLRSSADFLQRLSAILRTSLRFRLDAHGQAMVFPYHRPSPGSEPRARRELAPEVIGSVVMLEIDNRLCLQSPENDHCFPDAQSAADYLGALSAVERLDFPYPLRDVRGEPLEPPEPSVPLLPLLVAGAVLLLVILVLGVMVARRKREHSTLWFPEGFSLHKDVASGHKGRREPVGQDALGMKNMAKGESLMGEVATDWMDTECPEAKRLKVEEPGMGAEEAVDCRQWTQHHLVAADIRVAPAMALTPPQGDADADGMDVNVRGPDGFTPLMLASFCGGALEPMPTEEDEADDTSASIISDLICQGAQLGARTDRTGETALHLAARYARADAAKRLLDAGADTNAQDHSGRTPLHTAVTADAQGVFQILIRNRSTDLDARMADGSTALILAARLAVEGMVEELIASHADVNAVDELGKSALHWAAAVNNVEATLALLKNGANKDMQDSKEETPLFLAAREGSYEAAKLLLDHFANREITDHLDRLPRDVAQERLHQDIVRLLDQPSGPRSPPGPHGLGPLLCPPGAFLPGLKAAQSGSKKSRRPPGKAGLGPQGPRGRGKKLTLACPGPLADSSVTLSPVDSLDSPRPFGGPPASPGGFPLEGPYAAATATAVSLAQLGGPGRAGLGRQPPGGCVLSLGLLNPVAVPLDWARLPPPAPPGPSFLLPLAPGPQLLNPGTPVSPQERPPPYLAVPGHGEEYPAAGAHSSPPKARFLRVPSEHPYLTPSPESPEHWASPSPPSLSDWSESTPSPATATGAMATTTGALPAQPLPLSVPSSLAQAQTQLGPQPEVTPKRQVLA
- experiment: small molecules binding NOTCH3 protein – biochemical, 635/667 nm fluorescence, primary screen (AID 1096)
- study.conditions: small-molecule microarray, 635 nm fluorescence, higher = more signal
Reply with just the number.

Examples with their reported composite z-score follow.
| compound | composite z-score |
| --- | --- |
| CCCc1cc2c(n1Cc1cccc(Cl)c1)C(C)C1CN(C(=O)c3ccccc3)C(C)(C(=O)OC)C21 (centres undefined) | 1.11 |
| COC(=O)C1(C)C=C2C(=C(C)C(=O)C2C)CN1 (centres undefined) | -1.2 |
| COC(=O)NCC=Cc1nc(CCC=CC(=O)O[C@H]2CC3CC(=O)O[C@@H](C=CCC(C)C)C[C@@H]4CC[C@H](C)[C@@H](C[C@@H](OC)C[C@H](C2)O3)O4)co1 | -2 |
| CN1CCC(c2ccc(CO)cc2)=CC1C1CC1 (centres undefined) | -0.218 |
| C[C@@H]1OC=C2[C@@H](O)[C@H]3O[C@H]3C(=O)[C@]23[C@H]1[C@H]1C2=C([C@@H](O)[C@H]4O[C@H]4C2=O)[C@@H]3O[C@@H]1C | -0.186 |

Task: Field request: composite z-score | item: CCCC=C(CCC)[C@@H](NP(=O)(c1ccccc1)c1ccccc1)c1ccccc1
Result: 0.474

Task: Field request: composite z-score | item: COc1cc2c(cc1O)C(C)N(C)CC2 (centres undefined)
Result: -0.245

Task: Field request: composite z-score | item: O=P(c1ccccc1)(c1ccccc1)N1CC2(CC2)CC(O)(c2ccccc2)C1 (centres undefined)
Result: 0.498

Task: Field request: composite z-score | item: CCc1cc2c(nc1CC)CCN(CCC(C)=NOC)C2
Result: 0.0855

* * *

The reader will find reported z-score values listed item by item below.
- experiment: plasmodial surface anion channel blockers, osmotic lysis – cell-based, P. falciparum Indochina, OD700, 2 h, primary screen (AID 1155);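 note: lysis reports solute entry through the parasite surface anion channel PSAC; channel blockers reduce lysis of infected cells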
- study.conditions: P. falciparum Indochina infected erythrocytes; higher = more signal, called active from +8 up or from −8 down unless noted
Calls of active or inactive are those of the source.

Task: Field request: z-score | item: COC(=O)[C@@]1(Cc2ccccc2)[C@H]2c3cc(C(=O)N(C)C)n(C)c3C[C@H]2CN1C(=O)c1ccccc1
Result: 0.373 (inactive)

Task: Field request: z-score | item: COc1cc2c(cc1O)C(C)N(C)CC2 (stereo not drawn)
Result: 0.0698 (inactive)

Task: Field request: z-score | item: C[C@@H]1Cc2c(cnc3c2CN(C)CC3)CO1
Result: -0.0787 (inactive)

* * *

- System: PRMT1 (protein arginine N-methyltransferase 1)
- experiment: small molecules binding arginine methyltransferase PRMT1 – biochemical, small-molecule microarray, 635 nm fluorescence, primary screen (AID 1088);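 note: binding of Prmt1 protein to compounds spotted on small-molecule microarray slides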
- study.conditions: higher = more signal
The reader will find reported composite z-score values listed item by item below.
Reply with just the number.

| compound | composite z-score |
| --- | --- |
| CN1CCc2nc(CO)c(CO)cc2C1 | -0.121 |
| C=C(CC1(C(C)NP(=O)(c2ccccc2)c2ccccc2)CC1)c1ccccc1 (stereo not drawn) | 0.144 |

Task: Field request: composite z-score | item: COc1cc2c(cc1O)C(C)N(C)CC2 (stereo not drawn)
Result: -0.474

* * *

- assay.target: Left-right determination factor 2 (Homo sapiens) (UniProt O00292)
- Sequence (O00292 whole entry, looked up): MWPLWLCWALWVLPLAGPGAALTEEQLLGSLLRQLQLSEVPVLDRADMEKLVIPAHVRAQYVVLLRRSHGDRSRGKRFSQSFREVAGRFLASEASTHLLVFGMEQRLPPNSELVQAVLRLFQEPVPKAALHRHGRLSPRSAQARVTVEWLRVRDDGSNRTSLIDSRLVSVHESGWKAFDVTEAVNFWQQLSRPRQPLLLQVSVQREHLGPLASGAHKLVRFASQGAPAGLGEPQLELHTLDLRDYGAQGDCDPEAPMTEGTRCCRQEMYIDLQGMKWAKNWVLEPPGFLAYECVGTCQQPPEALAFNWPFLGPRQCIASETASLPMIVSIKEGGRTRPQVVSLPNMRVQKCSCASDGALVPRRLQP
- experiment: small molecules binding LEFTY2 protein – biochemical, small-molecule microarray, 635 nm fluorescence scan, primary screen (AID 1110)
- study.conditions: higher = more signal
The reader will find reported composite z-score values listed item by item below.
Reply with just the number.

Examples with their reported composite z-score follow.
| compound | assay.target | composite z-score |
| --- | --- | --- |
| c1ccc(-c2cc3c(nc2-c2ccccc2)CCNC3)cc1 | Left-right determination factor 2 (Homo sapiens) (UniProt O00292) | 0.0196 |
| COc1cc2c(cc1O)C(C)N(C)CC2 (centres undefined) | Left-right determination factor 2 (Homo sapiens) (UniProt O00292) | -0.603 |
| CCCc1cc2c(n1Cc1cccc(Cl)c1)C(C)C1CN(C(=O)c3ccccc3)C(C)(C(=O)OC)C21 (centres undefined) | Left-right determination factor 2 (Homo sapiens) (UniProt O00292) | -0.587 |
| COC(=O)[C@H]1[C@H](c2ccccc2)C(=O)[C@]2(O)c3ccccc3O[C@@]12c1ccccc1 | Left-right determination factor 2 (Homo sapiens) (UniProt O00292) | 0.832 |
| COC(=O)[C@@]1(Cc2ccccc2)[C@H]2c3cc(C(=O)N(C)C)n(C)c3C[C@H]2CN1C(=O)c1ccccc1 | Left-right determination factor 2 (Homo sapiens) (UniProt O00292) | -0.611 |
| C[C@@H]1OC=C2[C@@H](O)[C@H]3O[C@H]3C(=O)[C@]23[C@H]1[C@H]1C2=C([C@@H](O)[C@H]4O[C@H]4C2=O)[C@@H]3O[C@@H]1C | Left-right determination factor 2 (Homo sapiens) (UniProt O00292) | 0.425 |
| C=C(CC1(C(C)NP(=O)(c2ccccc2)c2ccccc2)CC1)c1ccccc1 (centres undefined) | Left-right determination factor 2 (Homo sapiens) (UniProt O00292) | -0.867 |
| CCOC(=O)[C@H]1CC=C2C(=O)Oc3ccc(Br)cc3[C@@H]21 | Left-right determination factor 2 (Homo sapiens) (UniProt O00292) | -1.91 |

Could you now look at the following compound, please?
Task: Field request: composite z-score | item: CN1CCC(c2ccc(CO)cc2)=CC1C1CC1 (centres undefined)
Result: 0.163

* * *

- experiment: probe aLAP1 signal on lysate-treated microarray – cell lysate, small-molecule microarray, COS7 lysate, primary screen (AID 1124);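 note: lysate comes from COS7 cells expressing LAP1 and is applied at 0.3 µg/mL; score merges spot fluorescence near 667 nm with signal-to-noise over triplicate slides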
- study.conditions: higher = more signal; small-molecule microarray, COS7 cell lysate, probe aLAP1, fluorescence unless noted
The reader will find reported composite z-score values listed item by item below.
Reply with just the number.

Examples with their reported composite z-score follow.
| compound | measured.parameter | numeric.result |
| --- | --- | --- |
| CCOC(=O)[C@H]1CC=C2C(=O)Oc3ccc(Br)cc3[C@@H]21 | composite z-score | 0.328 |
| COC(=O)NCC=Cc1nc(CCC=CC(=O)O[C@H]2CC3CC(=O)O[C@@H](C=CCC(C)C)C[C@@H]4CC[C@H](C)[C@@H](C[C@@H](OC)C[C@H](C2)O3)O4)co1 | composite z-score | 0.411 |
| OCc1ccc(C2=CC(C3CC3)N(Cc3sc4ccccc4c3Cl)CC2)cc1 (centres undefined) | composite z-score | 0.434 |
| CCc1cc2c(nc1CC)CCN(CCC(C)=NOC)C2 | composite z-score | 1.21 |

Could you now look at the following compound, please?
Task: Field request: composite z-score | item: C[C@H]1O[C@H]2C3=C(C(=O)[C@@H]4O[C@@H]4[C@@H]3O)[C@@H]1[C@@H]1[C@@H](C)OC=C3[C@@H](O)[C@H]4O[C@H]4C(=O)[C@]312
Result: -0.494
